From: PubChem BioAssay (NCI)

test system: OVCAR-5 ovarian; assay: NCI tumour cell line growth inhibition, 48 h
Observable: TGI

Known results for molecules:
{"Molecule": "CC(=O)c1c(CO[N+](=O)[O-])n([O-])c2ccccc2[n+]1=O", "TGI": "> 100 µM"}
{"Molecule": "N#Cc1c(N)nc(N2CCOCC2)c(C#N)c1-c1ccccn1", "TGI": "> 100 µM"}

Count: 8. Required value per item: TGI.
1. C#Cc1cc(Br)c(OC(=O)C(C)(C)C)c(-c2cc(C#C)cc(Br)c2OC(=O)C(C)(C)C)c1
2. O=C(N/N=C/c1ccc([N+](=O)[O-])cc1)Nc1ccc(Br)cc1
3. Cc1ccc(NS(=O)(=O)c2cccc(C#N)c2)c2[nH]cc(C#N)c12
4. CCCCCCCCCCCCCCCCCCNc1nc(=O)n(C2CC(O)C(COP(=O)(O)OCC3OC(n4ccc(N)nc4=O)C(O)C3O)O2)cc1F (stereo not given)
5. COC(=O)c1cc2c3ccccc3[nH]c2c2sccc12
6. COc1cc2c(cc1O)C1(Cc3ccc4c(c3C1=O)OCO4)N(C)CC2 (stereo not given)
7. COc1ccc(C2=C(N)c3ncccc3C2=O)cc1
8. Cc1cn2c(/C=N/N=C(N)N)c(-c3ccccn3)nc2s1

(A)
1: 66 µM; 2: > 100 µM; 3: > 92.7 µM; 4: > 100 µM; 5: > 100 µM; 6: > 100 µM; 7: > 100 µM; 8: 46 µM

====

tested on: SNB-19 CNS; experiment: NCI tumour cell line growth inhibition, 48 h
Hi there, I'd appreciate the recorded TGI for every entry that follows.

Known results for compounds:
{"Compound": "CCOc1ccccc1-c1nc2c(s1)C(=O)c1ccccc1C2=O", "TGI": "65.3 µM"}
{"Compound": "C/C(O)=C(\\C#N)C(=O)Nc1ccc(C(F)(F)F)cc1", "TGI": "> 100 µM"}
{"Compound": "CC(=O)OC[C@@]12Cc3ccc(C)c(O)c3[C@]1(C)[C@@H](OC(C)=O)[C@]1(O)[C@H]([C@@H](OC(=O)c3ccccc3)[C@@H](C)[C@H]1OC(C)=O)[C@H]2OC(C)=O", "TGI": "> 50 µM"}
{"Compound": "CC1=NN(c2nc(N)nc(C/C(N)=N/O)n2)C(C)(C)C1", "TGI": "> 100 µM"}
{"Compound": "Cc1ccnc2[nH]c(-c3ccc(F)cc3)cc(=O)c12", "TGI": "> 100 µM"}
{"Compound": "CCC(=O)Nc1ccc(C)c(-c2ccc(C(=O)NCC3CC3)cc2)c1", "TGI": "> 25 µM"}

Count: 3. Required value per item: TGI.
1. NS(=O)(=O)CC1CC[CH-]CC1.[Cl-].[Cl-].[Cl-].[Cl-].[Cl-].[Sb+5].c1ccncc1
2. O=[N+]([O-])c1cc(C(F)(F)F)ccc1Sc1ccc(C(F)(F)F)cc1[N+](=O)[O-]
3. Oc1ccc(C2c3ccccc3Oc3ccccc32)c2cccnc12

(A)
> 100 µM
> 100 µM
> 100 µM

Count: 6. Required value per item: TGI.
1. COc1cc(C2=N/C(=C/c3cccs3)C(=O)O2)cc(OC)c1OC
2. CC(=[N-])N1CCC[C@@H](Nc2c3ccccc3nc3ccccc23)C1.[Cl][Pt].[NH-]CCC[NH-]
3. CC1=C(/C=C/C(C)=C/C=C/C(C)=C/C(=O)O)C(C)(C)CCC1
4. Oc1c(Cl)cc(Cl)cc1C(c1cc(Cl)cc(Cl)c1O)C(Cl)(Cl)Cl
5. CCOC(=O)c1cc(Br)c(-c2cc(C)no2)[nH]1
6. CC1(N)CCN(c2cnc(-c3cccc(Cl)c3Cl)c(N)n2)CC1

(A)
["> 100 µM", "> 100 µM", "> 84.6 µM", "15.8 µM", "> 100 µM", "> 100 µM"]

Count: 5. Required value per item: TGI.
1. Clc1ccc(OCc2nnc3sc(-c4ccc(-c5ccc(Cl)cc5Cl)o4)nn23)cc1
2. C#Cc1cc(Br)c(OC(=O)C(C)(C)C)c(-c2cc(C#C)cc(Br)c2OC(=O)C(C)(C)C)c1
3. N#CC1(C#N)C2C=CC(c3coc4cccc2c34)C1(C#N)C#N (stereo unspecified)
4. COC(=O)C(Br)C1CCc2ccccc21 (stereo unspecified)
5. CCNC12CCC(C1)C(C)(C)C2=O (stereo unspecified)

(A)
1: > 100 µM; 2: > 100 µM; 3: 33.8 µM; 4: > 100 µM; 5: > 100 µM

Count: 7. Required value per item: TGI.
1. C=C1C(=O)OC2C3C(=C)[C@@H](OC(C)=O)CC3C(C)=CC(OC(=O)C(C)(OC(C)=O)C(C)OC(C)=O)[C@@H]12 (stereo partly specified)
2. Cc1ccc(OCC2OC(n3cnc4c(Cl)nc(Cl)nc43)CC2Oc2ccc(C)cc2)cc1 (stereo unspecified)
3. CN1CCN(c2ccc(NC(=O)c3cncnc3Nc3ccc(OCc4ccccn4)c(Cl)c3)cc2)CC1
4. C[C@]12CC[C@@H]3c4ccc(O)cc4CC[C@H]3[C@@H]1CC[C@@H]2OC(=O)CCc1ccccc1
5. [N-]=[N+]=NCCCn1c2c(c3ccc([N+](=O)[O-])cc3c1=O)C(=O)c1cc(F)ccc1-2
6. N=CN=CC(=S)O[C@@H]1C(=O)N2CCC[C@@]23CCCC[C@@H]13
7. CN(C)CCNC(=O)Cn1cnc2cccc([N+](=O)[O-])c2c1=O

(A)
1: > 100 µM; 2: 3.3 µM; 3: 11.8 µM; 4: 37.7 µM; 5: > 100 µM; 6: > 12.5 µM; 7: > 100 µM
